System: RAW264.7
Experiment: Inhibition of LPS-induced nitric oxide production in mouse RAW264.7 cells
Type: functional, cell-based
VALUE_KIND: IC50 (nM)

# count of solved cases: 3
MOLECULE: COc1cccc(O)c1C(=O)/C=C/c1ccccc1
UOM: nM
REPORTED: 9600
//
MOLECULE: COc1cccc(C(=O)/C=C/c2cc(OC)c(OC)c(OC)c2)c1
UOM: nM
REPORTED: 2880
//
MOLECULE: COc1ccccc1C(=O)/C=C/c1ccc(Cl)c(Cl)c1
UOM: nM
REPORTED: 7100

(a) COc1cc(/C=C/C(=O)c2ccc(F)cc2)cc(OC)c1OC
(b) COc1cccc(O)c1C(=O)/C=C/c1cccc(Br)c1
// compare: a vs b , metric IC50, want the smaller Field: selected label. Fill in the label of the entry you choose.
a

(A) CC1(C)C=Cc2cc(C(=O)/C=C/c3ccc(O)cc3)c(O)cc2O1 [4-HYDROXYISOLONCHOCARPIN]
(B) COc1cccc(OC)c1C(=O)/C=C/c1ccc(N(C)C)cc1
Form field 'greater IC50' accepts A or B ; which applies? Field: selected label. Fill in the label of the entry you choose.
A

(I) CC1(C)C=Cc2cc(/C=C/C(=O)c3ccc(O)cc3O)ccc2O1
(II) CC(C)=CCc1cc(C(=O)/C=C/c2ccc(O)c(O)c2)c(O)cc1O [BROUSSOCHALCONE A]
Form field 'greater IC50' accepts I or II ; which applies? Field: selected label. Fill in the label of the entry you choose.
II
(II: 11300 nM, I: 2200 nM)
